- Test system: DMPK
- CONDITION PARAMETERS: concentration: 1 μM, replicates: in singlicate; n = 1;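 also: KINOMEscan kinase panel screen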
Property: %Inh; scope: individual compounds

{"SMILES": "Cl.Cn1ccc(-c2cccc(Nc3ccnc4cc(-c5nccs5)ccc34)c2)n1", "UNITS": "%", "%Inh": 0}
{"SMILES": "NC(=O)c1sc(-n2cnc3ccccc32)cc1OCc1ccccc1F", "UNITS": "%", "%Inh": 0}
{"SMILES": "COC(=O)c1c(-c2ccccc2)c2cc(Cl)ccc2c(=O)n1Cc1ccc(S(C)(=O)=O)cc1", "UNITS": "%", "%Inh": 0}
{"SMILES": "N#Cc1ccc(Oc2ccc(Nc3ncnc4cc[nH]c34)cc2Cl)cc1", "UNITS": "%", "%Inh": 0}
{"SMILES": "FC(F)(F)c1ccc(-c2nn3ncccc3c2-c2ccnc(Nc3cccc(C(F)(F)F)c3)n2)cc1", "UNITS": "%", "%Inh": 7}

----------
- Tested on: RSK4(Kin.Dom.1-N-terminal)
- Construct: gene RPS6KA6
- CONDITION PARAMETERS: concentration: 1 μM, replicates: in singlicate; n = 1
QUANTITY NAME: %Inh (%)

{"COMPOUND": "c1ccc(-c2ccc3c(-c4ccnc(Nc5ccc6c(c5)OCCO6)n4)cnn3n2)cc1 [GW818941]", "QUANTITY NAME": "%Inh", "VALUE OBSERVED": 0}
{"COMPOUND": "Fc1cccc(COc2ccc(Nc3ncnc4sc(-c5ccc[nH]5)cc34)cc2Cl)c1 [GW707818]", "QUANTITY NAME": "%Inh", "VALUE OBSERVED": 0}
{"COMPOUND": "CN1c2ccc(-c3ccc(C(=O)NCCO)cc3)cc2-c2[nH]ncc2S1(=O)=O", "QUANTITY NAME": "%Inh", "VALUE OBSERVED": 3}
{"COMPOUND": "COC(=O)c1cccc(NC(=O)NCCNc2ccnc(Nc3ccc(F)cc3)n2)c1 [GSK1379883]", "QUANTITY NAME": "%Inh", "VALUE OBSERVED": 0}
{"COMPOUND": "FC(F)(F)c1cc(Nc2nccc(-c3c(-c4ccc(Cl)cc4)nn4ncccc34)n2)ccc1Cl [GW829351]", "QUANTITY NAME": "%Inh", "VALUE OBSERVED": 0}
{"COMPOUND": "CC(C)(C)OC(=O)NC1CCCN(c2cc(-c3ccc4c(N)n[nH]c4c3)nc(N)n2)C1 (stereo not drawn) [GSK2286096]", "QUANTITY NAME": "%Inh", "VALUE OBSERVED": 36}

----------
This listing pairs compounds with measured %Inh.
- System: DDR1
- CONDITION PARAMETERS: concentration: 1 μM, replicates: in singlicate; n = 1

{"COMPOUND": "CS(=O)(=O)CCNCc1nc(-c2ccc3ncnc(Nc4ccc(OCc5cccc(F)c5)c(Cl)c4)c3c2)cs1.Cl [GW583340]", "TESTED TARGET": "DDR1", "%Inh [%]": 4}
{"COMPOUND": "COC(=O)c1cccc(NC(=O)NCCNc2ccnc(Nc3ccc(F)cc3)n2)c1 [GSK1379883]", "TESTED TARGET": "DDR1", "%Inh [%]": 0}
{"COMPOUND": "Nc1nc(-c2ccccn2)c(-c2ccnc3ccccc23)s1 [GW548057]", "TESTED TARGET": "DDR1", "%Inh [%]": 0}
{"COMPOUND": "Cl.O=S(=O)(c1cccc(F)c1)c1ccc(Nc2ncnc3cc(Br)sc23)cc1Cl [GSK306886]", "TESTED TARGET": "DDR1", "%Inh [%]": 2}
{"COMPOUND": "CNc1nccc(-c2c(-c3ccc(F)cc3)ncn2CCCN2CCOCC2)n1 [SB-222516]", "TESTED TARGET": "DDR1", "%Inh [%]": 0}
{"COMPOUND": "O=C(NCCCN1CCCC1=O)c1cnc(NCc2cc(Cl)ccc2Cl)nc1NC1CCNCC1", "TESTED TARGET": "DDR1", "%Inh [%]": 0}
{"COMPOUND": "COC(=O)c1c(-c2ccccc2)c2cc(Cl)ccc2c(=O)n1Cc1ccc(S(C)(=O)=O)cc1", "TESTED TARGET": "DDR1", "%Inh [%]": 51}
{"COMPOUND": "CNc1nccc(-c2c(-c3ccc(F)cc3)ncn2C2CCN(C)CC2)n1 [SB-222903]", "TESTED TARGET": "DDR1", "%Inh [%]": 65}

----------
- Tested on: SNARK
- Construct: gene NUAK2
- CONDITION PARAMETERS: concentration: 1 μM, replicates: in singlicate; n = 1
Each entry below carries its reported %Inh.

{"MOLECULE": "Nc1nc(-c2ccc3c(N)n[nH]c3c2)cc(N2CCCCC2)n1", "UNITS": "%", "%Inh": 0}
{"MOLECULE": "COc1ccc(Nc2nccc(N3CCC(NC(=O)Nc4ccc5c(c4)OCO5)C3)n2)cc1 (stereo not shown)", "UNITS": "%", "%Inh": 8}
{"MOLECULE": "Oc1ccc2ncnc(Nc3ccc(OCc4ccccc4)cc3)c2c1", "UNITS": "%", "%Inh": 0}
{"MOLECULE": "Cc1cc(N2CCC(NS(=O)(=O)c3ccc(F)cc3)CC2)nc(Nc2cccc(C#N)c2)n1.O=C(O)C(F)(F)F", "UNITS": "%", "%Inh": 0}

----------
- Test system: MAP3K4
- CONDITION PARAMETERS: concentration: 1 μM, replicates: in singlicate; n = 1

{"COMPOUND": "CNc1nccc(-c2c(-c3ccc(F)cc3)ncn2C2CCN(C)CC2)n1 [SB-222903]", "UNITS": "%", "%Inh": 0}
{"COMPOUND": "Nc1n[nH]c2nnc(-c3ccccc3)cc12 [SB-517389]", "UNITS": "%", "%Inh": 32}
{"COMPOUND": "O=C(Nc1ccccc1)Nc1ccc(Oc2ccc3nccn3n2)cc1", "UNITS": "%", "%Inh": 21}
{"COMPOUND": "CC(C)(C)OC(=O)NC1CCCN(c2cc(-c3ccc4c(N)n[nH]c4c3)nc(N)n2)C1 (stereo not shown) [GSK2286096]", "UNITS": "%", "%Inh": 17}

----------
The entries below come with measured %Inh values attached.
- Tested on: TLK2
- CONDITION PARAMETERS: concentration: 1 μM, replicates: in singlicate; n = 1
QUANTITY NAME: %Inh (%)

{"MOLECULE": "Cl.Cn1ccc(-c2cccc(Nc3ccnc4cc(-c5nccs5)ccc34)c2)n1", "VALUE OBSERVED": 3}
{"MOLECULE": "COc1ccc(Nc2nccc(N3CCC(NC(=O)Nc4ccc5c(c4)OCO5)C3)n2)cc1 (centres unmarked)", "VALUE OBSERVED": 0}
{"MOLECULE": "NC(=O)c1sc(-n2cnc3ccccc32)cc1OCc1ccccc1F", "VALUE OBSERVED": 0}
{"MOLECULE": "Cl.c1ccc(Cn2ccc3cc(Nc4ncnc5ccccc45)ccc32)cc1", "VALUE OBSERVED": 0}
{"MOLECULE": "CC(C)(C)OC(=O)NC1CCCN(c2cc(-c3ccc4c(N)n[nH]c4c3)nc(N)n2)C1 (centres unmarked)", "VALUE OBSERVED": 0}
{"MOLECULE": "Cn1ccc2ncnc(Oc3ccc(NC(=O)Nc4cccnc4)c(Cl)c3)c21", "VALUE OBSERVED": 0}
{"MOLECULE": "Fc1ccc(Nc2nccc(-c3c(-c4ccc(Cl)cc4)nn4ncccc34)n2)cc1F", "VALUE OBSERVED": 12}
{"MOLECULE": "CC(C)(C)c1ccc(-n2cnc3c(N)ncnc32)cc1", "VALUE OBSERVED": 0}
{"MOLECULE": "Cl.Cl.c1ccc(-c2cc3ccncc3cc2OC2CCNCC2)cc1", "VALUE OBSERVED": 7}
{"MOLECULE": "Clc1cccc(-c2nc(Nc3ccncc3)c3ccccc3n2)c1", "VALUE OBSERVED": 0}
{"MOLECULE": "Nc1nc(-c2ccc3c(N)n[nH]c3c2)cc(N2CCC[C@@H](C(=O)Nc3ccccc3)C2)n1.O=C(O)C(F)(F)F.O=C(O)C(F)(F)F", "VALUE OBSERVED": 10}
{"MOLECULE": "O=C(Nc1n[nH]c2nc(-c3ccco3)c(Br)cc12)c1ccc(CN2CCCC2)cc1.O=C(O)[C@H](O)[C@@H](O)C(=O)O", "VALUE OBSERVED": 0}
{"MOLECULE": "Cl.O=S(=O)(c1cccc(F)c1)c1ccc(Nc2ncnc3cc(Br)sc23)cc1Cl", "VALUE OBSERVED": 2}
{"MOLECULE": "CCc1nc(-c2cccc(C)c2)c(-c2ccnc(NC(=O)c3ccccc3)c2)s1", "VALUE OBSERVED": 0}
{"MOLECULE": "CSc1nn2c(=O)cc(N3CCOCC3)nc2n1Cc1cccc(Cl)c1Cl", "VALUE OBSERVED": 0}
{"MOLECULE": "Fc1cccc(COc2ccc(Nc3ncnc4cc[nH]c34)cc2Cl)c1", "VALUE OBSERVED": 12}
{"MOLECULE": "CS(=O)(=O)CCNCc1nc(-c2ccc3ncnc(Nc4ccc(OCc5cccc(F)c5)c(Cl)c4)c3c2)cs1.Cl", "VALUE OBSERVED": 0}
{"MOLECULE": "Fc1ccc(-c2ncn(CCCNCc3ccccc3)c2-c2ccncc2)cc1", "VALUE OBSERVED": 0}
{"MOLECULE": "O=C(NCCCN1CCCC1=O)c1cnc(NCc2cc(Cl)ccc2Cl)nc1NC1CCNCC1", "VALUE OBSERVED": 0}
{"MOLECULE": "C[C@H]1CC[C@@H](C(=O)Nc2ccccc2)CN1c1cc(-c2ccc3c(N)n[nH]c3c2)nc(N)n1", "VALUE OBSERVED": 0}
{"MOLECULE": "CNc1nccc(-c2c(-c3ccc(F)cc3)ncn2CCCN2CCOCC2)n1", "VALUE OBSERVED": 0}
{"MOLECULE": "Cc1ccc(C)c(NC(=O)NCCNc2ccnc(Nc3ccc(F)cc3)n2)c1", "VALUE OBSERVED": 0}
{"MOLECULE": "FC(F)(F)c1ccc(-c2cc(-c3c[nH]nc3-c3ccccn3)ccn2)cc1", "VALUE OBSERVED": 11}
{"MOLECULE": "Cc1ccc(NC(=O)c2cccc(C#N)c2)cc1-c1ccc(C(=O)Nc2ccncc2)cc1", "VALUE OBSERVED": 0}
{"MOLECULE": "CS(=O)(=O)CCNCc1ccc(-c2ccc3ncnc(Nc4ccc(OCc5ccccc5)c(Cl)c4)c3c2)o1.Cl", "VALUE OBSERVED": 0}
{"MOLECULE": "Clc1cc(Nc2ncnc3cc[nH]c23)ccc1OCc1ccccn1", "VALUE OBSERVED": 4}
{"MOLECULE": "COC(=O)c1c(-c2ccccc2)c2cc(Cl)ccc2c(=O)n1Cc1ccc(S(C)(=O)=O)cc1", "VALUE OBSERVED": 0}
{"MOLECULE": "Nc1nc(-c2cccnc2)c(-c2ccnc3ccccc23)s1", "VALUE OBSERVED": 0}
{"MOLECULE": "Nc1nccc2scc(-c3ccc4c(c3)CCN4C(=O)Cc3cc(F)ccc3F)c12", "VALUE OBSERVED": 0}
{"MOLECULE": "CCC(CC)(CC)n1cnc2c(N)ncnc21", "VALUE OBSERVED": 2}
{"MOLECULE": "COc1ccc(NC(=O)Nc2ccc(C)c(-c3ccc(C(=O)Nc4ccncc4)cc3)c2)cc1", "VALUE OBSERVED": 0}
{"MOLECULE": "CNc1nccc(-c2c(-c3ccc(F)cc3)ncn2C2CCN(C)CC2)n1", "VALUE OBSERVED": 0}
{"MOLECULE": "COc1ccc(-c2oc3ncnc(N)c3c2-c2ccc(OC)cc2)cc1", "VALUE OBSERVED": 0}
{"MOLECULE": "Cc1ccc(O)cc1Nc1cc(C(F)(F)F)nc2ccc(-c3ccncc3)cc12", "VALUE OBSERVED": 0}
{"MOLECULE": "CCCc1ccc(S(=O)(=O)NC2CCN(c3ccnc(Nc4ccc(OC)cc4)n3)C2)cc1 (centres unmarked)", "VALUE OBSERVED": 0}
